Just for reference, PubChem BioAssay (NCI) is where these values come from.

# TGI values compiled below
tested on: 786-0 renal; experiment: NCI tumour cell line growth inhibition, 48 h
Parameter: TGI

# Query Smiles, Assay Target, Observed Result
measured = [
    ("Cn1ncc2c(NCc3ccccc3)ncnc21", "786-0 renal", "> 100 µM"),
    ("Cc1cc(C(=O)CSC(=S)SC(C)(C)C)ccc1Cl", "786-0 renal", "74.4 µM"),
    ("CC(C)(C)N=C(N)NC#N", "786-0 renal", "> 100 µM"),
    ("CCc1n[nH]c(=O)n1-c1ccc2ccccc2c1", "786-0 renal", "> 100 µM"),
]

###

system: SF-268 CNS; experiment: NCI tumour cell line growth inhibition, 48 h

# Compound, Assay Target, TGI
records = [
    ("CSc1nc2c(c(N(C)C)n1)C(O)n1c(nc3ccccc31)S2 (stereo unspecified)", "SF-268 CNS", "> 100 µM"),
    ("CCc1n[nH]c(=O)n1-c1ccc2ccccc2c1", "SF-268 CNS", "> 100 µM"),
    ("Cc1cc(C)nc(NC(=S)Nc2ccc([N+](=O)[O-])cc2)c1", "SF-268 CNS", "> 100 µM"),
    ("CCc1c(O)c(O)c(C(C)=O)c2c(O)c(-c3c(C)cc4c(CC)c(O)c(O)c(C(C)=O)c4c3O)c(C)cc12", "SF-268 CNS", "37.1 µM"),
    ("CCOC(=O)CNC(=O)NC12CC3CC(CC(C3)C1)C2", "SF-268 CNS", "> 550 µM"),
    ("Cc1ccc(/C=C2/N=C(N/N=C\\C(O)C(O)C(O)C(O)CO)NC2=O)cc1 (stereo unspecified)", "SF-268 CNS", "> 100 µM"),
    ("CCOC(=O)/C=C1/C(CCCOCc2ccccc2)C2CCCC23CC2(CCN13)OCCO2 (stereo unspecified)", "SF-268 CNS", "> 100 µM"),
    ("CCCCCCCCCCCC[N+]12CC[N+](CCN)(CC1)CC2", "SF-268 CNS", "> 100 µM"),
    ("CC(C)C1=CC23CCC4C(C)(C(=O)O)CCCC4(C)C2CC1C1C(=O)N(CCCCCCN2C(=O)C4C5CC6C7(C)CCCC(C)(C(=O)O)C7CCC6(C=C5C(C)C)C4C2=O)C(=O)C13 (stereo unspecified)", "SF-268 CNS", "26.8 µM"),
    ("COc1ccc(NC(=O)CSc2nnc(-c3ccc(NC(C)=O)cc3)o2)cc1", "SF-268 CNS", "34.8 µM"),
    ("C=CC1(C)CC(=O)C2(O)C(C)(O1)C(OC(C)=O)C(O)C1C(C)(C)CCC(O)C12C (stereo unspecified)", "SF-268 CNS", "> 150 µM"),
    ("O=C(Nc1nc(-c2c[nH]c3ccccc23)cs1)c1n[nH]c(=O)c2ccccc12", "SF-268 CNS", "> 46.2 µM"),
    ("COc1cccc2c1OC(c1cccc3ccccc13)C([N+](=O)[O-])=C2 (stereo unspecified)", "SF-268 CNS", "13.3 µM"),
    ("O=C(O)c1cccc(S(=O)(=O)NN2C(=O)CSC2c2ccc(Cl)cc2Cl)c1 (stereo unspecified)", "SF-268 CNS", "> 100 µM"),
    ("O=C1NC(O)CCN1C1OC(CO)C(O)C1O (stereo unspecified)", "SF-268 CNS", "> 250 µM"),
    ("CO/N=C(/C(=O)OC)c1ccccc1COc1ccccc1C(F)(F)F", "SF-268 CNS", "> 100 µM"),
    ("CNc1cc2oc(=O)cc(C)c2cc1C", "SF-268 CNS", "> 100 µM"),
    ("O=C1CSC2(CC(/C=C/c3cccs3)=NN2c2cccc(S(=O)(=O)O)c2)N1c1nc2ccccc2s1 (stereo unspecified)", "SF-268 CNS", "> 100 µM"),
    ("COc1cc(C=O)ccc1O", "SF-268 CNS", "> 100 µM"),
    ("CCOC(=O)c1c(C)c2c(n1Cc1ccccc1)CSCC2=O", "SF-268 CNS", "> 100 µM"),
    ("c1ccc(C(C(=Nc2ccc(Cc3ccc(N=C(C(c4ccccc4)c4ccccc4)N4CC4)cc3)cc2)N2CC2)c2ccccc2)cc1", "SF-268 CNS", "21.8 µM"),
]

###

tested on: SK-MEL-2 melanoma; test: NCI tumour cell line growth inhibition, 48 h

# Compound, TGI
rows = [
    ("NCCCn1c2c(c3ccc([N+](=O)[O-])cc3c1=O)C(=O)c1cc(I)ccc1-2", "2.28 µM"),
    ("Cc1ccc2c(c1)c1ccc3c(c1n2C)C(=O)C=CC3=O", "> 10 µM"),
    ("CC(C)(CO)CNc1nc(N)nc(Cl)c1/C=N/O", "> 100 µM"),
    ("NC(=O)c1cc(I)ccc1NC(=O)/C=C/c1ccccc1", "> 56.6 µM"),
    ("CCOC(=O)c1c(C)c2c(n1Cc1ccccc1)CSCC2=O", "45.7 µM"),
    ("COc1ccc(/C=N/NC(=O)c2ccc(O)c(CN(C)C)c2)cc1", "> 100 µM"),
    ("Cc1cc(OP2(=O)NCc3ncccc3O2)ccc1Cl (centres undefined)", "> 100 µM"),
    ("c1ccc(C2=NOC(c3ccccc3)N2C23CC4CC(CC(C4)C2)C3)cc1 (centres undefined)", "> 10 µM"),
    ("Cc1nc2c(Br)cc(Br)cc2c(=O)n1-c1nnc(-c2cccc(Cl)c2Cl)c(N)n1", "> 100 µM"),
]

###

test system: LOX IMVI melanoma; assay: NCI tumour cell line growth inhibition, 48 h
Parameter: TGI

# Molecule, Assay Target, Observed Result
records = [
    ("CN1CC[C@]2(c3cccc(O)c3)CC(=O)/C(=C/c3ccccc3)[C@@H]1C2", "LOX IMVI melanoma", "4.71 µM"),
    ("C=C(CN(C)Cc1ccccc1)c1ccc(NC(=O)c2ccc(C(=C)CN(C)Cc3ccccc3)cc2)cc1", "LOX IMVI melanoma", "> 100 µM"),
    ("CC1OC(O[C@H]2C3C=CO[C@@H](OC4OC(CO)C(O)C(O)C4O)C3[C@@]3(COC(=O)/C=C/c4ccccc4)O[C@@H]23)C(O)C(O)C1O (stereo not given in full)", "LOX IMVI melanoma", "> 100 µM"),
    ("O=c1onc2n1-c1cc(Cl)ccc1C(=S)N1CSCC21 (stereo not given)", "LOX IMVI melanoma", "> 100 µM"),
    ("c1ccc(C2=NOC(c3ccccc3)N2C23CC4CC(CC(C4)C2)C3)cc1 (stereo not given)", "LOX IMVI melanoma", "> 10 µM"),
]
